Assignment: determine reported inhibition for the given compounds.
Molecular target: P2X2/P2X3 heterotrimeric receptor (Homo sapiens) (UniProt Q9UBL9+P56373)
Assay: Antagonist activity against human P2X2/3 receptor expressed in HEK293/1321N1 cells assessed as inhibition of alpha,beta-meATP/ATP-induced calcium influx at 3 uM by Fluo-4 dye based FLIPR assay
Format: functional, cell-based
Numbers only, in %.

Cc1ccc(N2CCc3ncnc(NCc4ccc(OC(F)(F)F)cc4)c3C2)nc1	50
Cc1ccc(N2CCc3ncnc(N(C)Cc4ccc(F)cc4)c3C2)nc1	0
Cc1ccc(N2CCc3ncnc(NCc4cccc(C)c4C)c3C2)nc1	0
COc1ccccc1CN(C)c1ncnc2c1CN(c1ccc(C)cn1)CC2	0

Please examine the following record next.
In one line, give reported inhibition of the entry "Cc1ccc(N2CCc3ncnc(NCc4ccc(F)c(C(F)(F)F)c4)c3C2)nc1" .
0

Values from ChEMBL document CHEMBL3727362
